Reference source: paper PMC10812921

For each of the sequences below, state its binding signal.
target: POU1 (OCT1 POU domain);BOB1 (OBF1, OCA-B) (human;human, UniProt P14859;Q16633 260-458;1-256, |); experiment: EMSA-SELEX-seq; with BOB1 (ternary complex band); 20 mM Tris-HCl pH 7.6, 140 mM NaCl, 10% glycerol, 0.5 mM EDTA, 0.05% Triton X-100, 0.1 mg/mL BSA, 0.1 mg/mL poly(dI-dC), 5 mM DTT, room temperature, 20 min; high values mean tight binding; conditions: protein: recombinant;recombinant; copies: 1;1; dsDNA, one strand shown
Sequence (P14859 260-458, chain 1 of 2): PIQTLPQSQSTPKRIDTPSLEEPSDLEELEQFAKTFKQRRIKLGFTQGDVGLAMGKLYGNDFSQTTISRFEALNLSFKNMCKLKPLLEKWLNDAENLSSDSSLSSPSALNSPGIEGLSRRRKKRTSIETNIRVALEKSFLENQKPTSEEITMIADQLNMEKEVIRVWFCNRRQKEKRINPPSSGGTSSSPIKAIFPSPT
Sequence (Q16633 whole entry, chain 2 of 2, the tested form may be a part): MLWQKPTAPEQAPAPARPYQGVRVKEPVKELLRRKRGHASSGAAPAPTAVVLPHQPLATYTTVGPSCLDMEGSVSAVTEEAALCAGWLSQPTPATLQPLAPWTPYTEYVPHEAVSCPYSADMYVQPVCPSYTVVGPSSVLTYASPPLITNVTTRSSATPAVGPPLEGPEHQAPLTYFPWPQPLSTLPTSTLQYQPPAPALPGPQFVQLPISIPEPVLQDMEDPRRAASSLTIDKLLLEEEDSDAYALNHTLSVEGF

AATTGAAT
0.127 % of ANNNNAAN 8-mers
ATGCAAAT
8.18 % of ANNNNAAN 8-mers
ATTAGAAG
0.0585 % of ANNNNAAN 8-mers
ATTGCAAG
0.0336 % of ANNNNAAN 8-mers
ATTACAAA
0.08 % of ANNNNAAN 8-mers
AGATCAAG
0.0273 % of ANNNNAAN 8-mers

Kindly give each listed record's binding signal.
1. ATACTAAA
2. ACTTCAAA
3. AGCTGAAT
4. AGAGCAAT

1. 0.0499 % of ANNNNAAN 8-mers
2. 0.0336 % of ANNNNAAN 8-mers
3. 0.0492 % of ANNNNAAN 8-mers
4. 0.0332 % of ANNNNAAN 8-mers

Dear colleague, could you send me binding signal for each of the items below? Thanks.
1. AGCAAAAT
2. ACAGGAAG
3. AGCCGAAC
4. ACGCCAAA
5. ACCTCAAT

1. 0.107 % of ANNNNAAN 8-mers
2. 0.0332 % of ANNNNAAN 8-mers
3. 0.016 % of ANNNNAAN 8-mers
4. 0.016 % of ANNNNAAN 8-mers
5. 0.025 % of ANNNNAAN 8-mers

###

target: POU1 (OCT1 POU domain);BOB1 (OBF1, OCA-B) (human;human, UniProt P14859;Q16633 260-458;1-256, |); assay: EMSA-SELEX-seq; with BOB1 (ternary complex band); 20 mM Tris-HCl pH 7.6, 140 mM NaCl, 10% glycerol, 0.5 mM EDTA, 0.05% Triton X-100, 0.1 mg/mL BSA, 0.1 mg/mL poly(dI-dC), 5 mM DTT, room temperature, 20 min; high values mean tight binding; details: protein: recombinant;recombinant; copies: 1;1; dsDNA, one strand shown
VALUE TYPE: binding signal

AGCCTAAC
0.0109 % of ANNNNAAN 8-mers
AAGGTAAG
0.0468 % of ANNNNAAN 8-mers
ACACTAAT
0.0316 % of ANNNNAAN 8-mers
AGTCGAAG
0.023 % of ANNNNAAN 8-mers
AACCCAAG
0.0144 % of ANNNNAAN 8-mers
AGGCTAAA
0.0363 % of ANNNNAAN 8-mers

Return reported binding signal values for all items listed beneath this line.
1. AACCAAAA
2. AGTAGAAG
3. AGCGCAAT

["0.0753 % of ANNNNAAN 8-mers", "0.0336 % of ANNNNAAN 8-mers", "0.0258 % of ANNNNAAN 8-mers"]

###

biological target: POU1 (OCT1 POU domain) (human, UniProt P14859 260-458); experiment: EMSA-SELEX-seq; no BOB1; 20 mM Tris-HCl pH 7.6, 140 mM NaCl, 10% glycerol, 0.5 mM EDTA, 0.05% Triton X-100, 0.1 mg/mL BSA, 0.1 mg/mL poly(dI-dC), 5 mM DTT, room temperature, 20 min; high values mean tight binding; details: protein: recombinant; dsDNA, one strand shown
Sequence (P14859 260-458): as the sequence (P14859 260-458, chain 1 of 2) above
Please go through the items and note down their binding signal.

AAGCCAAC
0.0137 % of ANNNNAAN 8-mers
AAATGAAT
0.256 % of ANNNNAAN 8-mers

Provide each entry's binding signal from the list below.
1. AGGTAAAG
2. AAAGAAAT
3. AGGTGAAT
4. AATAAAAG

1. 0.0801 % of ANNNNAAN 8-mers
2. 0.145 % of ANNNNAAN 8-mers
3. 0.108 % of ANNNNAAN 8-mers
4. 0.106 % of ANNNNAAN 8-mers
